Origin of values: patent US4929736A

# TEST_TARGET: Human leukocyte elastase (HLE) (Homo sapiens)
# Construct: purchased Elastin Products, St. Louis, Mo
# Sequence (P08246 30-267): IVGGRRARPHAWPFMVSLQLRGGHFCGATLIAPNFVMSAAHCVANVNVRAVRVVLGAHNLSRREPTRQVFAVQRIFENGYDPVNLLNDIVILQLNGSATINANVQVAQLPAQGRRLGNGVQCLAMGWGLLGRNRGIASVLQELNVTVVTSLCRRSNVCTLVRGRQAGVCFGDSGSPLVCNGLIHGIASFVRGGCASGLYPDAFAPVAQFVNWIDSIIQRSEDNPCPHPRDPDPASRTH
# PROTOCOL_DETAILS: Spectrophotometric assay of HLE inactivation (in vitro)
# Format: biochemical
# REPORTED_CONDITIONS: Table III; inactive: no inhibition at 243fold excess of inhibitor over enzyme, 10min incubation; read-out: kobsd /[I], inhibition of leukocyte elastase
Some molecules, each annotated with its measured kinact/KI.
RECORDED_ENDPOINT: kinact/KI (M⁻¹ s⁻¹)

                                 smiles_data                               test_target  recorded_number
 0                O=C(NCCc1cccc(F)c1)n1ccnc1  Human leukocyte elastase (HLE) (Homo sapiens)               38
 1      O=C(NCCc1cccc(C(F)(F)F)c1)n1ccccc1=O  Human leukocyte elastase (HLE) (Homo sapiens)            11700
 2                O=C(NCCc1ccccc1)S(=O)(=O)O  Human leukocyte elastase (HLE) (Homo sapiens)                4
 3             O=C(NCCc1cccc(F)c1)S(=O)(=O)O  Human leukocyte elastase (HLE) (Homo sapiens)               18
 4             O=C(NCCc1cccc(F)c1)n1ccccc1=O  Human leukocyte elastase (HLE) (Homo sapiens)              317
 5  O=C(NCCc1cccc(C(F)(F)F)c1)ON1C(=O)CCC1=O  Human leukocyte elastase (HLE) (Homo sapiens)            13500
 6         O=C(NCCc1cccc(F)c1)ON1C(=O)CCC1=O  Human leukocyte elastase (HLE) (Homo sapiens)              823
 7            O=C(NCCc1ccccc1)ON1C(=O)CCC1=O  Human leukocyte elastase (HLE) (Homo sapiens)              927
 8         O=C(NCCc1cccc(C(F)(F)F)c1)n1ccnc1  Human leukocyte elastase (HLE) (Homo sapiens)              483
 9                O=C(NCCc1ccccc1)n1ccccc1=O  Human leukocyte elastase (HLE) (Homo sapiens)              500
10                   O=C(NCCc1ccccc1)n1ccnc1  Human leukocyte elastase (HLE) (Homo sapiens)               35
